biological target: Na+ channel (site 2), batrachotoxin-binding sites of VGSCs; settings: [3H]batrachotoxin displacement, rat cerebral cortex membranes, 8 concentrations 0.1-300 µM; read-out: Na+ Channel (Site 2) Affinity IC50 ± SEM
readout-label: IC50 (µM)

INSERT INTO measurements (compound, assayed_target, endpoint_result) VALUES
  ('CCCCCCn1c(CCc2cccc(Cl)c2)n[nH]c1=S', 'Na+ channel (site 2), batrachotoxin-binding sites of VGSCs', 18.9),
  ('COc1ccc(C(=O)O[C@H]2CC[C@@]3(C)[C@@H]4CC[C@H]5[C@]6(O)C[C@H](O)[C@@]7(O)[C@@H](CN8C[C@@H](C)CC[C@H]8[C@@]7(C)O)[C@]6(O)C[C@@]53O[C@]24O)cc1OC [Veratridine, reference compound]', 'Na+ channel (site 2), batrachotoxin-binding sites of VGSCs', 17.8),
  ('CCCCn1c(CCc2cccc(Cl)c2)n[nH]c1=S', 'Na+ channel (site 2), batrachotoxin-binding sites of VGSCs', 11.9);
